system_tested: Human Full Length PARG (Homo sapiens (Human))
protocol_summary: PARG enzyme assay (TR-FRET)
Assay type: biochemical
condition_parameters: read-out: PARG Biochem IC50 Geomean
property: pIC50
API: returns pIC50 as number; meaning -log10 of concentration in mol/L.

Example compounds with recorded pIC50:
compound: Cc1cc(Cn2cc(Br)c3ccc(S(=O)(=O)NC4(C)CC4)cc3c2=O)on1 [Example 307]
endpoint_value: 5.57

compound: Cn1cc(Cn2c(=O)c3cc(S(=O)(=O)NC4(C#N)CC4)ccc3n(CC3CC3)c2=O)cn1 [Example 346]
endpoint_value: 7.33

compound: Cc1cc(Cn2c(=O)c3cc(S(=O)(=O)NC4(C)CC4)ccc3n(CC3(F)COC3)c2=O)on1 [Example 350]
endpoint_value: 6.49

Here's the next entry for you.
What value of pIC50 has been reported for the following compound? Cc1nc(C)c(Cn2c(=O)n(C)c(=O)c3cc(S(=O)(=O)NC4(C#N)CC4)ccc32)s1 [Example 204]
6.93

###

system_tested: Human Full Length PARG (Homo sapiens (Human))
protocol_summary: PARG enzyme assay (TR-FRET)
Format: biochemical
condition_parameters: read-out: PARG Biochem IC50 Geomean
Listed here: items and their measured pIC50.
Please keep in mind that pIC50 is minus log10 of the molar concentration; only the number is needed.

As a guide, the following entries are already answered.
molecule: Cc1ncc(Cn2c(=O)c3cc(S(=O)(=O)NC4(C)CC4)ccc3n(C)c2=O)s1 [Example 109]
property: pIC50
endpoint_value: 6.32
--
molecule: Cc1nnsc1Cn1c(=O)c2cc(S(=O)(=O)NC3(C)CC3)ccc2n(C)c1=O [Example 191]
property: pIC50
endpoint_value: 6.06
--
molecule: Cc1cc(Cn2nc(C(C)C)c3ccc(S(=O)(=O)NC4(C)CC4)cc3c2=O)on1 [Example 310]
property: pIC50
endpoint_value: 6.51
--
molecule: COc1cc(Cn2c(=O)n(C)c(=O)c3cc(S(=O)(=O)NC4(C)CC4)ccc32)cc(OC)c1 [Example 78]
property: pIC50
endpoint_value: 6.21
--
molecule: Cn1c(=O)n(CC(=O)Nc2ccccc2)c(=O)c2cc(S(=O)(=O)NC3(C)CC3)ccc21 [Example 85]
property: pIC50
endpoint_value: 5.65

Now for a further molecule.
What does the data say about its pIC50? Entry: Cn1c(=O)c2cc(S(=O)(=O)NC3(C)CC3)ccc2n(Cc2ccccc2C#N)c1=O [Example 68]
6.49

###

log10 of IC50 values, listed per item
System: PARG in HeLa cell line
protocol_summary: PARG cell assay (PAR chain immunofluorescence after MMS)
Format: cell-based
condition_parameters: Homo sapiens; HeLa cells, MMS 50 μg/mL; read-out: PARG Cell IC50 Geomean
Scale: log10; quantity: IC50; unit before log: µM

molecule: Cc1cc(Cn2c(=O)c3cc(S(=O)(=O)NC4(C)CC4)ccc3n(Cc3cc(C)no3)c2=O)on1
log10 of IC50: -1.16
//
molecule: Cn1cc(Cn2c(=O)c3cc(S(=O)(=O)NC4(C)CC4)ccc3n(Cc3cnn(C)c3)c2=O)cn1
log10 of IC50: -0.94
//
molecule: CCOC(=O)Cn1c(=O)n(Cc2cc(C)no2)c(=O)c2cc(S(=O)(=O)NC3(C)CC3)ccc21
log10 of IC50: -0.34
//
molecule: Cc1cc(Cn2c(=O)c3cc(S(=O)(=O)NC4(C)CC4)ccc3n(C3COC3)c2=O)on1
log10 of IC50: -0.31
//
molecule: Cn1cc(Cn2c(=O)c3cc(S(=O)(=O)NC4(C)CC4)ccc3n(Cc3ccc(F)cc3)c2=O)cn1
log10 of IC50: -0.99

Quick one: log10 of IC50 of Cc1noc(C)c1Cn1c(=O)c2cc(S(=O)(=O)NC3(C)CC3)ccc2n(C)c1=O ?
-0.41

Fill in: log10 of IC50 of Cc1cc(Cn2c(=O)c3cc(S(=O)(=O)NC4(C)CC4)ccc3n(CCO)c2=O)on1 is ___
-0.11

I have this molecule here, Cn1cc(Cn2c(=O)c3cc(S(=O)(=O)NC4(C)CC4)ccc3n(CCCOC(F)(F)F)c2=O)cn1 , and I need its recorded log10 of IC50.
-0.73

###

system_tested: Human Full Length PARG (Homo sapiens (Human))
protocol_summary: PARG enzyme assay (TR-FRET)
Format: biochemical
condition_parameters: read-out: PARG Biochem IC50
Sorting guide: entries reporting IC50 beneath 0.8 µM go in the yes (1) pile, the rest go in the no (0) pile.

Identify whether the compound Cn1cc(Cn2c(=O)c3cc(S(=O)(=O)NC4(CF)CC4)ccc3n(Cc3cncs3)c2=O)cn1 [Example 563] records IC50 below 0.8 µM.
yes (1)

is_below(IC50, 0.8 µM) for CCn1c(=O)n(Cc2nnc(C)s2)c(=O)c2cc(S(=O)(=O)NC3(CF)CC3)ccc21 [Example 602] ?
yes (1)

Please state whether IC50 is below 0.8 µM for Cn1cc(Cn2c(=O)c3cc(S(=O)(=O)NC4(CF)CC4)ccc3n(Cc3ncccc3F)c2=O)cn1 [Example 542]
yes (1)

Just wondering, is IC50 of Cn1cc(Cc2cc3cc(S(=O)(=O)NC4(C)CC4)ccc3n(C)c2=O)cn1 [Example 491] below 0.8 µM?
no (0)

Does this compound meet the criterion IC50 < 0.8 µM? COC(=O)c1cc(S(=O)(=O)NC2(C)CC2)cc2c(=O)n(Cc3cnn(C)c3)c(=O)[nH]c12 [Example 448]
yes (1)

###

# key: entry, value: IC50
system_tested: UniProt:Q86W56
protocol_summary: PARG enzyme assay (TR-FRET)
Type: biochemical
condition_parameters: read-out: PARG Biochem IC50
Numeric only. Scale: nM

Entry Cc1cc(Cn2c(=O)c3cc(S(=O)(=O)NC4(C)CC4)ccc3n(CC3CNC3)c2=O)on1 , system UniProt:Q86W56: what IC50 was measured?
609

Notebook entry, UniProt:Q86W56 assay: IC50 of CCn1c(=O)n(Cc2cc(C)no2)c(=O)c2cc(S(=O)(=O)NC3(CF)CC3)ccc21 = ?
162

Field: IC50 (UniProt:Q86W56). Entry: Cc1cc(Cn2c(=O)c3cc(S(=O)(=O)NC4(CF)CC4)ccc3n(C)c2=O)sn1
597

###

system_tested: Human Full Length PARG (Homo sapiens (Human))
protocol_summary: PARG enzyme assay (TR-FRET)
Format: biochemical
condition_parameters: read-out: PARG Biochem IC50
property: IC50 (nM)
Lab book: enter the figure in nM, no units written.

These recorded examples may help you get a feel for the data.
line_notation: Cn1cc(Cn2c(=O)c3cc(S(=O)(=O)NC4(C)CC4)c(F)cc3n(CC3(C)COC3)c2=O)cn1
IC50 / nM: 44

line_notation: Cn1cc(Cn2c(=O)c3cc(S(=O)(=O)NC4(CF)CC4)ccc3n(Cc3ccno3)c2=O)cn1
IC50 / nM: 38

line_notation: Cc1cc(Cn2c(=O)n(Cc3cnn(C)c3)c(=O)c3cc(S(=O)(=O)NC4(CF)CC4)ccc32)n(C)n1
IC50 / nM: 23

Notebook: pull reported IC50 for Human Full Length PARG (Homo sapiens (Human)), entry Cc1ccc(Cn2c(=O)n(Cc3cnn(C)c3)c(=O)c3cc(S(=O)(=O)NC4(CF)CC4)ccc32)cn1
71

What IC50 appears in the records for this compound with Human Full Length PARG (Homo sapiens (Human))? Cn1cc(Cn2c(=O)c3cc(S(=O)(=O)NC4(CF)CC4)ccc3n(Cc3cocn3)c2=O)cn1
63

What reported IC50 corresponds to Cc1nc(Cn2c(=O)n(Cc3nnc(C)s3)c(=O)c3cc(S(=O)(=O)NC4(CF)CC4)ccc32)no1 on Human Full Length PARG (Homo sapiens (Human))?
121

Short answer please: IC50, Human Full Length PARG (Homo sapiens (Human)), entry Cc1cc(Cn2c(=O)c3cc(S(=O)(=O)NC4(CF)CC4)ccc3n(Cc3cnn(C)c3)c2=O)on1
49

###

Parameter IC50: see the listing below.
system_tested: Human Full Length PARG (Homo sapiens (Human), UniProt Q86W56)
Sequence (Q86W56 whole entry): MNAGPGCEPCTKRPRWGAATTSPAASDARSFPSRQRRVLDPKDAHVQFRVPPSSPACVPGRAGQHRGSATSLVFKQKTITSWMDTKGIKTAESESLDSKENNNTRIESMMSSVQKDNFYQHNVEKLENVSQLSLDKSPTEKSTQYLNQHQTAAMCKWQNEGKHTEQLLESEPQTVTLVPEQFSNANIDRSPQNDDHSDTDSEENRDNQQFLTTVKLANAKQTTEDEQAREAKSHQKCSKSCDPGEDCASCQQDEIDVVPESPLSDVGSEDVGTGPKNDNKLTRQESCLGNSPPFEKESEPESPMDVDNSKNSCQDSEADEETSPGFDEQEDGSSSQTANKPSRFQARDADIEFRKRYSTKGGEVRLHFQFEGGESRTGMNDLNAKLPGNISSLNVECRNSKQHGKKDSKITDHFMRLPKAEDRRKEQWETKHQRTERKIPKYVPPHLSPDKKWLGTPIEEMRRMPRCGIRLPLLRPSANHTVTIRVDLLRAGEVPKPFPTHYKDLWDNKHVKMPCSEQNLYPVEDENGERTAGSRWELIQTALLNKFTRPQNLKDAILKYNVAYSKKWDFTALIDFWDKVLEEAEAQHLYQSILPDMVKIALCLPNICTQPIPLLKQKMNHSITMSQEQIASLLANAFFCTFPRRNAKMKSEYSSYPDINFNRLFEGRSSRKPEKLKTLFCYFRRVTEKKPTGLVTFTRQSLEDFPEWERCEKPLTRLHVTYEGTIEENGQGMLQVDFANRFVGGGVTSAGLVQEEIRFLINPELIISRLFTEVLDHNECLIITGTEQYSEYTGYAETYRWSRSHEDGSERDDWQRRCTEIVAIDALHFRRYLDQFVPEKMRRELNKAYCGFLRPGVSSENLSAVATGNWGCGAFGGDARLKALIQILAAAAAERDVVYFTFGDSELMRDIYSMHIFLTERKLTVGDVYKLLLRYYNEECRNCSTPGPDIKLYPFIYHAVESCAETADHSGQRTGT
protocol_summary: PARG enzyme assay (TR-FRET)
Assay type: biochemical
condition_parameters: read-out: PARG Biochem IC50 Geomean
Write the value in nM as a bare number.

In the examples that follow, each entry is paired with its recorded IC50.
compound: Cn1c(=O)n(CC(=O)N2CCOCC2)c(=O)c2cc(S(=O)(=O)NC3(C)CC3)ccc21
IC50 [nM]: 4410

compound: Cn1c(C2CC2)nc2ccc(S(=O)(=O)NC3(C)CC3)cc2c1=O
IC50 [nM]: 2180

compound: Cn1c(=O)n(Cc2cccnc2)c(=O)c2cc(S(=O)(=O)NC3(C)CC3)ccc21
IC50 [nM]: 2550

compound: Cc1cc(Cn2c(=O)[nH]c3ccc(S(=O)(=O)NC4(C#N)CC4)cc3c2=O)on1
IC50 [nM]: 356

compound: Cn1cc(Cn2c(=O)c3cc(S(=O)(=O)NC4(C)CC4)ccc3n(CC3CC(C)(C)O3)c2=O)cn1 (centres unmarked)
IC50 [nM]: 229

compound: Cc1cc(Cn2c(=O)n(C)c(=O)c3cc(S(=O)(=O)NC4(C)CC4)ccc32)no1
IC50 [nM]: 1430

compound: Cn1ccnc1Cn1c(=O)n(C)c(=O)c2cc(S(=O)(=O)NC3(C)CC3)ccc21
IC50 [nM]: 750

Would you kindly share the measured IC50 for Cc1cc(Cn2c(=O)n(Cc3cnn(C)c3)c(=O)c3cc(S(=O)(=O)NC4(C)CC4)c(F)cc32)n(C)n1 ?
47
